System: Enterococcus faecalis
Protocol: Antibacterial activity against Enterococcus faecalis ATCC 29212 assessed as growth inhibition by broth dilution method
Assay type: functional
Property Name: MIC

Annotate the compound CC[C@H](C)[C@@H](NC(=O)[C@@H](NC(=O)[C@H](CCC(=O)O)NC(=O)[C@H](Cc1ccccc1)NC(=O)[C@@H](CCN)NC(=O)[C@H](CCN)NC(=O)[C@H](CO)NC(=O)[C@@H](Cc1c[nH]c2ccccc12)NC(=O)[C@@H](CO)NC(=O)CNC(=O)[C@@H](CCN)NC(=O)[C@H](NC(=O)COCCOCCOC)C(C)C)C(C)C)C(=O)N[C@@H](C)C(=O)O with its measured MIC.
> 100 µg/mL

Annotate the compound CCCC(=O)N[C@@H](C(=O)N[C@H](CCN)C(=O)NCC(=O)N[C@H](CO)C(=O)N[C@H](Cc1c[nH]c2ccccc12)C(=O)N[C@@H](CO)C(=O)N[C@@H](CCN)C(=O)N[C@H](CCN)C(=O)N[C@@H](Cc1ccccc1)C(=O)N[C@@H](CCC(=O)O)C(=O)N[C@H](C(=O)N[C@@H](C(=O)N[C@@H](C)C(=O)O)[C@@H](C)CC)C(C)C)C(C)C with its measured MIC.
> 100 µg/mL

---

Tested on: Acinetobacter baumannii
Protocol: Antibacterial activity against Acinetobacter baumannii ATCC 19606 assessed as growth inhibition by broth dilution method
Format: functional
In this section, each of the molecules is paired with its reported MIC.
The response must be a number in µg/mL with no trailing unit.

| Input Smiles | Recorded Number |
| --- | --- |
| CCCCCCC(=O)N[C@@H](C(=O)N[C@H](CCN)C(=O)NCC(=O)N[C@H](CO)C(=O)N[C@H](Cc1c[nH]c2ccccc12)C(=O)N[C@@H](CO)C(=O)N[C@@H](CCN)C(=O)N[C@H](CCN)C(=O)N[C@@H](Cc1ccccc1)C(=O)N[C@@H](CCC(=O)O)C(=O)N[C@H](C(=O)N[C@@H](C(=O)N[C@@H](C)C(=O)O)[C@@H](C)CC)C(C)C)C(C)C | 12.5 |

Annotate the molecule CC[C@@H](C)CC[C@H](O)CC(=O)N[C@@H](C(=O)N[C@H](CCN)C(=O)NCC(=O)N[C@H](CO)C(=O)N[C@H](Cc1c[nH]c2ccccc12)C(=O)N[C@@H](CO)C(=O)N[C@@H](CCN)C(=O)N[C@H](CCN)C(=O)N[C@@H](Cc1ccccc1)C(=O)N[C@@H](CCC(=O)O)C(=O)N[C@H](C(=O)N[C@@H](C(=O)N[C@@H](C)C(=O)O)[C@@H](C)CC)C(C)C)C(C)C with its measured MIC.
50

---

In this section, each of the molecules is paired with its reported MIC.
Tested on: Enterococcus faecalis
Protocol: Antibacterial activity against Enterococcus faecalis ATCC 29212 assessed as growth inhibition by broth dilution method
Format: functional

Annotate the molecule CCCCCC(=O)N[C@@H](C(=O)N[C@H](CCN)C(=O)NCC(=O)N[C@H](CO)C(=O)N[C@H](Cc1c[nH]c2ccccc12)C(=O)N[C@@H](CO)C(=O)N[C@@H](CCN)C(=O)N[C@H](CCN)C(=O)N[C@@H](Cc1ccccc1)C(=O)N[C@@H](CCC(=O)O)C(=O)N[C@H](C(=O)N[C@@H](C(=O)N[C@@H](C)C(=O)O)[C@@H](C)CC)C(C)C)C(C)C with its measured MIC.
> 100 µg/mL

Annotate the molecule CC[C@H](C)[C@@H](NC(=O)[C@@H](NC(=O)[C@H](CCC(=O)O)NC(=O)[C@H](Cc1ccccc1)NC(=O)[C@@H](CCN)NC(=O)[C@H](CCN)NC(=O)[C@H](CO)NC(=O)[C@@H](Cc1c[nH]c2ccccc12)NC(=O)[C@@H](CO)NC(=O)CNC(=O)[C@@H](CCN)NC(=O)[C@H](NC(=O)OCC1c2ccccc2-c2ccccc21)C(C)C)C(C)C)C(=O)N[C@@H](C)C(=O)O with its measured MIC.
50 µg/mL

---

Tested on: Enterococcus faecalis
Protocol: Antibacterial activity against Enterococcus faecalis ATCC 29212 assessed as growth inhibition by broth dilution method
Assay type: functional
Property Name: MIC

| Input Smiles | Result |
| --- | --- |
| CC[C@H](C)[C@@H](NC(=O)[C@@H](NC(=O)[C@H](CCC(=O)O)NC(=O)[C@H](Cc1ccccc1)NC(=O)[C@@H](CCN)NC(=O)[C@H](CCN)NC(=O)[C@H](CO)NC(=O)[C@@H](Cc1c[nH]c2ccccc12)NC(=O)[C@@H](CO)NC(=O)CNC(=O)[C@@H](CCN)NC(=O)[C@H](NC(=O)CCC1c2ccccc2-c2ccccc21)C(C)C)C(C)C)C(=O)N[C@@H](C)C(=O)O | > 100 µg/mL |
| CCCCCCCCCCCC(=O)N[C@@H](C(=O)N[C@H](CCN)C(=O)NCC(=O)N[C@H](CO)C(=O)N[C@H](Cc1c[nH]c2ccccc12)C(=O)N[C@@H](CO)C(=O)N[C@@H](CCN)C(=O)N[C@H](CCN)C(=O)N[C@@H](Cc1ccccc1)C(=O)N[C@@H](CCC(=O)O)C(=O)N[C@H](C(=O)N[C@@H](C(=O)N[C@@H](C)C(=O)O)[C@@H](C)CC)C(C)C)C(C)C | > 100 µg/mL |

Annotate the compound CCCCCCCCCC(=O)N[C@@H](C(=O)N[C@H](CCN)C(=O)NCC(=O)N[C@H](CO)C(=O)N[C@H](Cc1c[nH]c2ccccc12)C(=O)N[C@@H](CO)C(=O)N[C@@H](CCN)C(=O)N[C@H](CCN)C(=O)N[C@@H](Cc1ccccc1)C(=O)N[C@@H](CCC(=O)O)C(=O)N[C@H](C(=O)N[C@@H](C(=O)N[C@@H](C)C(=O)O)[C@@H](C)CC)C(C)C)C(C)C with its measured MIC.
> 100 µg/mL

---

Test system: Staphylococcus aureus
Protocol: Antibacterial activity against Staphylococcus aureus ATCC 29213 assessed as growth inhibition by broth dilution method
Type: functional
In this section, each of the compounds is paired with its reported MIC.

Below are worked cases with known answers.
| Input Smiles | Property Name | Result |
| --- | --- | --- |
| CCCCCCCC(=O)N[C@@H](C(=O)N[C@H](CCN)C(=O)NCC(=O)N[C@H](CO)C(=O)N[C@H](Cc1c[nH]c2ccccc12)C(=O)N[C@@H](CO)C(=O)N[C@@H](CCN)C(=O)N[C@H](CCN)C(=O)N[C@@H](Cc1ccccc1)C(=O)N[C@@H](CCC(=O)O)C(=O)N[C@H](C(=O)N[C@@H](C(=O)N[C@@H](C)C(=O)O)[C@@H](C)CC)C(C)C)C(C)C | MIC | 100 µg/mL |
| CC[C@H](C)[C@@H](NC(=O)[C@@H](NC(=O)[C@H](CCC(=O)O)NC(=O)[C@H](Cc1ccccc1)NC(=O)[C@@H](CCN)NC(=O)[C@H](CCN)NC(=O)[C@H](CO)NC(=O)[C@@H](Cc1c[nH]c2ccccc12)NC(=O)[C@@H](CO)NC(=O)CNC(=O)[C@@H](CCN)NC(=O)[C@H](NC(C)=O)C(C)C)C(C)C)C(=O)N[C@@H](C)C(=O)O | MIC | > 100 µg/mL |
| CC[C@H](C)[C@@H](NC(=O)[C@@H](NC(=O)[C@H](CCC(=O)O)NC(=O)[C@H](Cc1ccccc1)NC(=O)[C@@H](CCN)NC(=O)[C@H](CCN)NC(=O)[C@H](CO)NC(=O)[C@@H](Cc1c[nH]c2ccccc12)NC(=O)[C@@H](CO)NC(=O)CNC(=O)[C@@H](CCN)NC(=O)[C@H](N)C(C)C)C(C)C)C(=O)N[C@@H](C)C(=O)O | MIC | > 100 µg/mL |

Consider the additional compound presented here.
Annotate the compound CC[C@H](C)[C@@H](NC(=O)[C@@H](NC(=O)[C@H](CCC(=O)O)NC(=O)[C@H](Cc1ccccc1)NC(=O)[C@@H](CCN)NC(=O)[C@H](CCN)NC(=O)[C@H](CO)NC(=O)[C@@H](Cc1c[nH]c2ccccc12)NC(=O)[C@@H](CO)NC(=O)CNC(=O)[C@@H](CCN)NC(=O)[C@H](NC(=O)OCC1c2ccccc2-c2ccccc21)C(C)C)C(C)C)C(=O)N[C@@H](C)C(=O)O with its measured MIC.
100 µg/mL

---

Test system: Klebsiella pneumoniae
Protocol: Antibacterial activity against Klebsiella pneumoniae ATCC 13883 assessed as growth inhibition by broth dilution method
Format: functional
Property Name: MIC (µg/mL)
The response must be a number in µg/mL with no trailing unit.

| Input Smiles | Recorded Number |
| --- | --- |
| CCCCCCCCCCCC(=O)N[C@@H](C(=O)N[C@H](CCN)C(=O)NCC(=O)N[C@H](CO)C(=O)N[C@H](Cc1c[nH]c2ccccc12)C(=O)N[C@@H](CO)C(=O)N[C@@H](CCN)C(=O)N[C@H](CCN)C(=O)N[C@@H](Cc1ccccc1)C(=O)N[C@@H](CCC(=O)O)C(=O)N[C@H](C(=O)N[C@@H](C(=O)N[C@@H](C)C(=O)O)[C@@H](C)CC)C(C)C)C(C)C | 12.5 |
| CC[C@@H](C)CC[C@@H](O)CC(=O)N[C@@H](C(=O)N[C@H](CCN)C(=O)NCC(=O)N[C@H](CO)C(=O)N[C@H](Cc1c[nH]c2ccccc12)C(=O)N[C@@H](CO)C(=O)N[C@@H](CCN)C(=O)N[C@H](CCN)C(=O)N[C@@H](Cc1ccccc1)C(=O)N[C@@H](CCC(=O)O)C(=O)N[C@H](C(=O)N[C@@H](C(=O)N[C@@H](C)C(=O)O)[C@@H](C)CC)C(C)C)C(C)C | 6.25 |
| CC[C@H](C)CC[C@H](O)CC(=O)N[C@@H](C(=O)N[C@H](CCN)C(=O)NCC(=O)N[C@H](CO)C(=O)N[C@H](Cc1c[nH]c2ccccc12)C(=O)N[C@@H](CO)C(=O)N[C@@H](CCN)C(=O)N[C@H](CCN)C(=O)N[C@@H](Cc1ccccc1)C(=O)N[C@@H](CCC(=O)O)C(=O)N[C@H](C(=O)N[C@@H](C(=O)N[C@@H](C)C(=O)O)[C@@H](C)CC)C(C)C)C(C)C | 6.25 |
| CCCCCCCCCC(=O)N[C@@H](C(=O)N[C@H](CCN)C(=O)NCC(=O)N[C@H](CO)C(=O)N[C@H](Cc1c[nH]c2ccccc12)C(=O)N[C@@H](CO)C(=O)N[C@@H](CCN)C(=O)N[C@H](CCN)C(=O)N[C@@H](Cc1ccccc1)C(=O)N[C@@H](CCC(=O)O)C(=O)N[C@H](C(=O)N[C@@H](C(=O)N[C@@H](C)C(=O)O)[C@@H](C)CC)C(C)C)C(C)C | 6.25 |

Recall the reported MIC of CC[C@H](C)[C@@H](NC(=O)[C@@H](NC(=O)[C@H](CCC(=O)O)NC(=O)[C@H](Cc1ccccc1)NC(=O)[C@@H](CCN)NC(=O)[C@H](CCN)NC(=O)[C@H](CO)NC(=O)[C@@H](Cc1c[nH]c2ccccc12)NC(=O)[C@@H](CO)NC(=O)CNC(=O)[C@@H](CCN)NC(=O)[C@H](N)C(C)C)C(C)C)C(=O)N[C@@H](C)C(=O)O when tested on Klebsiella pneumoniae.
50

Recall the reported MIC of CCCCCCC(=O)N[C@@H](C(=O)N[C@H](CCN)C(=O)NCC(=O)N[C@H](CO)C(=O)N[C@H](Cc1c[nH]c2ccccc12)C(=O)N[C@@H](CO)C(=O)N[C@@H](CCN)C(=O)N[C@H](CCN)C(=O)N[C@@H](Cc1ccccc1)C(=O)N[C@@H](CCC(=O)O)C(=O)N[C@H](C(=O)N[C@@H](C(=O)N[C@@H](C)C(=O)O)[C@@H](C)CC)C(C)C)C(C)C when tested on Klebsiella pneumoniae.
6.25

Recall the reported MIC of CC[C@H](C)[C@@H](NC(=O)[C@@H](NC(=O)[C@H](CCC(=O)O)NC(=O)[C@H](Cc1ccccc1)NC(=O)[C@@H](CCN)NC(=O)[C@H](CCN)NC(=O)[C@H](CO)NC(=O)[C@@H](Cc1c[nH]c2ccccc12)NC(=O)[C@@H](CO)NC(=O)CNC(=O)[C@@H](CCN)NC(=O)[C@H](NC(=O)OCC1c2ccccc2-c2ccccc21)C(C)C)C(C)C)C(=O)N[C@@H](C)C(=O)O when tested on Klebsiella pneumoniae.
6.25

Recall the reported MIC of CCCCCC(=O)N[C@@H](C(=O)N[C@H](CCN)C(=O)NCC(=O)N[C@H](CO)C(=O)N[C@H](Cc1c[nH]c2ccccc12)C(=O)N[C@@H](CO)C(=O)N[C@@H](CCN)C(=O)N[C@H](CCN)C(=O)N[C@@H](Cc1ccccc1)C(=O)N[C@@H](CCC(=O)O)C(=O)N[C@H](C(=O)N[C@@H](C(=O)N[C@@H](C)C(=O)O)[C@@H](C)CC)C(C)C)C(C)C when tested on Klebsiella pneumoniae.
3.13

Recall the reported MIC of CCCCCCCCC(=O)N[C@@H](C(=O)N[C@H](CCN)C(=O)NCC(=O)N[C@H](CO)C(=O)N[C@H](Cc1c[nH]c2ccccc12)C(=O)N[C@@H](CO)C(=O)N[C@@H](CCN)C(=O)N[C@H](CCN)C(=O)N[C@@H](Cc1ccccc1)C(=O)N[C@@H](CCC(=O)O)C(=O)N[C@H](C(=O)N[C@@H](C(=O)N[C@@H](C)C(=O)O)[C@@H](C)CC)C(C)C)C(C)C when tested on Klebsiella pneumoniae.
12.5

Recall the reported MIC of CC[C@@H](C)CC[C@H](O)CC(=O)N[C@@H](C(=O)N[C@H](CCN)C(=O)NCC(=O)N[C@H](CO)C(=O)N[C@H](Cc1c[nH]c2ccccc12)C(=O)N[C@@H](CO)C(=O)N[C@@H](CCN)C(=O)N[C@H](CCN)C(=O)N[C@@H](Cc1ccccc1)C(=O)N[C@@H](CCC(=O)O)C(=O)N[C@H](C(=O)N[C@@H](C(=O)N[C@@H](C)C(=O)O)[C@@H](C)CC)C(C)C)C(C)C when tested on Klebsiella pneumoniae.
12.5
